- Assay name: amyloid nucleation score (Sup35N fusion, yeast selection) (log enrichment); library NNK2; higher = more nucleation; inactive = no reads after selection;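 also: zero at mode of non-aggregating sequences after 7 days selection at 30°C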
Property measured: amyloid nucleation score
Quick one: just the number, no unit, thanks!

Query string: Please look at this substance and report its amyloid nucleation score: VNLTSFYLITDCTLNGQQWR
Result string: 8.65

Query string: Tell me its amyloid nucleation score given NKCQMSCNRRYEDMGYDRCM as the entry.
Result string: 0.038

Query string: Annotate the substance GLSCVFRMRIE with its measured amyloid nucleation score.
Result string: 6.27

Query string: Please indicate amyloid nucleation score recorded for LRGMTLFTPVTLTNSNCMVT
Result string: 0.437

Query string: Input VQFTRSVRFTLQFCARSDKT , output reported amyloid nucleation score.
Result string: 6.91

Query string: Supply measured amyloid nucleation score of DRYVSV in your reply.
Result string: 0.455

Query string: Give recorded amyloid nucleation score. LAPPKKAFISVKMSLDRYCV
Result string: -0.305

Query string: Tell me amyloid nucleation score reported for GVVPQGMMTI
Result string: -0.701

Query string: Tell us which amyloid nucleation score value is on record for YSSSVMPRRSDRVRT
Result string: 0.139

Query string: Name the recorded amyloid nucleation score of the substance listed here: ANMTSHEFRWKSN
Result string: -0.168

Query string: Give a short answer stating reported amyloid nucleation score for CQCSVSVGNTDSHNLPKVYV .
Result string: -0.221

Query string: Give amyloid nucleation score for the following substance: RLYWVGGATGRFD
Result string: 2.02

Query string: Hello, please tell me recorded amyloid nucleation score for this one: CFFTCC
Result string: 9.91

Query string: Tell me measured amyloid nucleation score for RSAFHCNWLISISSGKVSHM please.
Result string: -0.452

Query string: Tell me its amyloid nucleation score given AGTFKRWPLGYECFVSERIG as the entry.
Result string: -0.803

Query string: Specify reported amyloid nucleation score for the substance shown: SDSGQVVNSLGSKEGIRFFD
Result string: -1.17

Query string: Quote amyloid nucleation score reported for FFGGNCKVK please.
Result string: -0.146

Query string: Give the measured amyloid nucleation score for SDIYRSSRLQ
Result string: 0.179

Query string: Note amyloid nucleation score for the substance shown: CEFRDQRFPLVCAGYGRYIG
Result string: 0.653

Query string: Consider the substance CSLTSFAGNSIYFRWRANT . State its measured amyloid nucleation score.
Result string: 1.18

Query string: Give recorded amyloid nucleation score. PWDVGRRR
Result string: 0.97

Query string: Return amyloid nucleation score (reported value) for this substance: TGCLLWCLLSMEGRESFQDD
Result string: -0.504

Query string: Using known records, supply amyloid nucleation score for RSRSSFLHIFSSFKHISTR
Result string: -0.74

Query string: Give amyloid nucleation score for QWVIKFIHRQIVVPFKFAGI
Result string: -0.385

Query string: Tell me amyloid nucleation score reported for YYLYWHFKIYWRQHLVNAFN
Result string: -1

###

- Assay name: amyloid nucleation score (Sup35N fusion, yeast selection) (log enrichment); library NNK1; higher = more nucleation; inactive = no reads after selection
Property measured: amyloid nucleation score

SADLCLMWSGTNC	inactive
DDFAMLE	inactive
LIGIVKGTTVSRMGNTVIDR	inactive
GCFSPITQWSMWHVWRVRRQ	0.49

###

- Assay name: amyloid nucleation score (Sup35N fusion, yeast selection) (log enrichment); library NNK1; higher = more nucleation; inactive = no reads after selection
Property measured: amyloid nucleation score

WGYRHSYSVGPRW	inactive
RTPFNVDPKPTDPRNTRCST	0.822
FFMLFRCGF	0.333
AHYRRVSVAQTHWMADPFGR	0.976
GEHSLSIICCVLCTVGDGPN	7.61

Query string: Complete the entry with amyloid nucleation score for LEWANDLVNCSQRIM
Result string: -0.331

Query string: Annotate the sequence DVWKAGSVGPRQLVRRGGRR with its measured amyloid nucleation score.
Result string: 0.259

Query string: Given ICACIMELCSLLHGIRGM , respond with its amyloid nucleation score.
Result string: -0.378

Query string: Recall and state the measured amyloid nucleation score for LSHWAIVFVICGPRSKKGGS .
Result string: -0.115

Query string: Hello, please tell me recorded amyloid nucleation score for this one: NYREGVVIILNNPDYCRRER
Result string: 6.36

###

- Assay name: amyloid nucleation score (Sup35N fusion, yeast selection) (log enrichment); library NNK1; higher = more nucleation; inactive = no reads after selection
Property measured: amyloid nucleation score

Query string: For the sequence CFFYDCGWTCPLKNIGSYTF , give its reported amyloid nucleation score.
Result string: 0.07

Query string: State, in one line, measured amyloid nucleation score of DLSSRFGRVETERGGKVKCQ
Result string: -0.299

Query string: For the sequence NVSVENLGYTLSIPSSMICS , give its reported amyloid nucleation score.
Result string: 0.319

Query string: Given the sequence LQPNLMEGAMSSGGTEEVTV , write its reported amyloid nucleation score.
Result string: -0.565

###

- Assay name: amyloid nucleation score (Sup35N fusion, yeast selection) (log enrichment); library NNK1; higher = more nucleation; inactive = no reads after selection
Definition: the class of an entry is the range in label 0: < -0.3; label 1: ≥ -0.3 and < 0.3; label 2: ≥ 0.3 that contains its amyloid nucleation score.

Query string: Band for CVFYGFWYFGW ?
Result string: label 1

Query string: Hi, small favor: classify ACEKLQVNW by its amyloid nucleation score when you get a moment.
Result string: label 2

Query string: Lab log: YDASGLWMCKERAEGFMRNV — assign amyloid nucleation score category
Result string: label 1

Query string: Lab note: which band did WESSGFQMICRSFSFNMFSS land in?
Result string: label 0

Query string: Class for IARYSTVYPVPHNCRNHKHS ?
Result string: label 1

Query string: Quick check: band for NMCFYELDGYMLGNYLARQF
Result string: label 0

Query string: Which amyloid nucleation score category applies to RLFLVEFIWNMR here?
Result string: label 2

Query string: Dear colleague, I would appreciate it if you could identify the bin for FYMRSFLFDFQLFHVVGIWF and reply at your convenience.
Result string: label 0

Query string: Please report the category associated with QKYPPRGNRFSLCRITVSCF , nothing else.
Result string: label 1

Query string: Pick a category. Item: AVWLVQSHPN
Result string: label 2

Query string: Band for LANLAVHLLGQGETCIQMFL ?
Result string: label 2

###

- Assay name: amyloid nucleation score (Sup35N fusion, yeast selection) (log enrichment); library NNK3; higher = more nucleation; inactive = no reads after selection
Property measured: amyloid nucleation score

LERVSVSTQYLRLHLDLNSF	inactive
MQSAVNVV	inactive
VMTAVRAD	inactive
GRIQPCISRAAGPDAGVMGL	inactive
SYLCVATWSCPHYVGFSQHI	inactive

Here is another substance to look at.
Query string: Report measured amyloid nucleation score; entry is MKYYVR
Result string: inactive

###

- Assay name: amyloid nucleation score (Sup35N fusion, yeast selection) (log enrichment); library NNK1; higher = more nucleation; inactive = no reads after selection
Met means recorded amyloid nucleation score is 0.08 or above; Not met means it is below 0.08.

Query string: API: above_or_equal(metric=amyloid nucleation score, cutoff=0.08) for item VLGGCYNFLLCF
Result string: Met

Query string: Has LYDCCYIFTYYGSRYLTQKS a recorded amyloid nucleation score greater than or equal to 0.08?
Result string: Not met

Query string: # bool: amyloid nucleation score of CGCCARWNYIIMMGWGGCVL >= 0.08
Result string: Met

Query string: Reported amyloid nucleation score at or above 0.08? GEERFYSLKYCCKGRLWRPG
Result string: Met

Query string: For this substance, is measured amyloid nucleation score 0.08 or higher? SLFQYWDVRDVESTFSVCNC
Result string: Met

Query string: Threshold query (amyloid nucleation score >= 0.08) on AFRSRFVIFHDGIRVLGYAD
Result string: Not met

Query string: Determine whether this substance has amyloid nucleation score no lower than 0.08: LISLLGSISMGPCIVRVYN
Result string: Not met

Query string: State whether the measured amyloid nucleation score reaches 0.08, counting equality as reaching it, for SWTGMNSHSLKKHLGI
Result string: Not met

Query string: For this substance, is measured amyloid nucleation score 0.08 or higher? YDRNCFGAPFNSVVQVTGKS
Result string: Not met

Query string: Answer whether amyloid nucleation score of VLPMTGYSRLRPIYRFMFFD is greater than or equal to 0.08.
Result string: Met

Query string: Decide: amyloid nucleation score of LLSPLTRLYFRKFFSVGKAW >= 0.08?
Result string: Met

Query string: hey, is amyloid nucleation score for this one >= 0.08? TCLMRSRLACMFVRINEW
Result string: Met

Query string: Determine whether measured amyloid nucleation score meets or exceeds 0.08 for TCHSKSVCCLYGLCGGPEWG
Result string: Met

Query string: Please check the record CVSHFIHCDWLGQRL and state if its amyloid nucleation score is at or above 0.08.
Result string: Met

Query string: Exam item: decide whether the reported amyloid nucleation score for IAILNLDNLGGYGCNCFHYF is at least 0.08.
Result string: Met

Query string: Would you say YDLNYKDCSLRSVSSVGLQC shows amyloid nucleation score at minimum 0.08?
Result string: Met

Query string: Is it the case that YYSWQEDGFPFTNVSMFWS has amyloid nucleation score reaching or exceeding 0.08?
Result string: Not met

Query string: Determine whether measured amyloid nucleation score meets or exceeds 0.08 for YDNIWYKVNRAYEIRWLVGG
Result string: Not met

Query string: Entry RSSWQMSPNMLLTNLNCCSS : is its amyloid nucleation score no less than 0.08?
Result string: Met

Query string: Check this substance for amyloid nucleation score at or above 0.08: PYIRVRLFMVVY
Result string: Met

Query string: Decide: amyloid nucleation score of AKSWCVSIKLVSDNSYLWET >= 0.08?
Result string: Met

Query string: Does the reported amyloid nucleation score for VTFWHVFLIFSYLSTCAWWW fall at or above the 0.08 mark?
Result string: Not met

Query string: Hi, just wondering whether QCWEWIR shows amyloid nucleation score of 0.08 or higher.
Result string: Not met

Query string: Check if amyloid nucleation score >= 0.08 (inclusive). Item: CIRGGSIWLMGHNVREVC
Result string: Met

Query string: # check: amyloid nucleation score of CHIGSRPLASMKAFPHCDVA is greater than or equal to 0.08
Result string: Met

Query string: # bool: amyloid nucleation score of YGVNHRMYSKWHSVGAWMCR >= 0.08
Result string: Met

Query string: Say whether QVDHKIWKGTVYDLSMGMM shows amyloid nucleation score of 0.08 or more.
Result string: Not met
